Would you kindly list z-score for each of these molecules?
test_method_notes: growth of efflux-deficient E. coli DRC39 – strain DRC39, OD650, 48 h, E. coli filamentation inducers, primary screen (AID 1179);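 note: screen aims at cell division blockers that make cells filament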
condition_set: E. coli DRC39 delta-acrAB growth, higher = more signal, called active from +8 up or from −8 down
Calls of active or inactive are those of the source.

Assign z-score to the following record: O=C1O[C@@H](c2ccccc2)[C@@H](c2ccccc2)N2[C@@H](c3ccc(O)cc3)[C@]3(C(=O)Nc4ccc(C#CCCO)cc43)[C@@H](C(=O)N3CCN(c4ncccn4)CC3)[C@H]12
0.602 (inactive)

Please report the measured z-score for C=CC[C@@]1(C(=O)NCCCOC)N=C(c2ccc(OCCCO)cc2)O[C@@H]1c1ccccc1N=[N+]=[N-]
1.43 (inactive)

Quote z-score reported for CCOC(=O)C[C@H]1[C@H](OC(=O)c2cc3ccccc3oc2=O)[C@@H](NC(=O)CC(C)C)c2cc(OCCCO)ccc2N1C(=O)c1ccc2ccccc2n1 please.
-0.416 (inactive)

Given O=C(O)[C@@H]1C[C@@H]2C(=O)N3CCC[C@H]3C(=O)N2[C@@H]1c1ccc(O)cc1 , respond with its z-score.
-0.535 (inactive)

###

Test system: Sam68 (KHDRBS1)
test_method_notes: compounds binding KHDRBS1 protein – biochemical, small-molecule microarray, 635 nm fluorescence, primary screen (AID 1125);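 note: score merges 667 nm channel intensity with signal to noise over triplicate slides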
condition_set: higher = more signal
Exercise: for every item that follows, state its recorded composite z-score.
Respond with the number and no other words.

Read the entry COC(=O)C/C=C/C[C@]1(O)C(=O)N(C)c2ccccc21 and write its reported composite z-score.
0.241

Quick one: give measured composite z-score for COC(=O)C1=CC(CCCO)=CC(c2cccs2)N(Cc2cccc(OC(F)(F)F)c2)C=C1C(=O)OC (configuration not stated)
1.3

Entry COC(=O)C(CC#Cc1ccc2c(c1)[C@]1(C(=O)N2)[C@H](c2ccc(O)cc2)N2[C@H](c3ccccc3)[C@H](c3ccccc3)OC(=O)[C@H]2[C@@H]1C(=O)NC[C@H](O)c1ccccc1)C(=O)OC needs its composite z-score filled in; supply it.
1.24

Complete the entry with composite z-score for COc1cc2c(cc1O)C(C1CC1)N(Cc1cccc(OC(F)(F)F)c1)CC2 (configuration not stated)
-0.316

State its composite z-score for this compound: O=C1OCCC=C[C@H]2OC34C=CCN(Cn5nnc6ccccc65)C(=O)[C@H]3N(CCCO)C(=O)[C@@H]4C12 (some centres not stated)
-0.674

Note composite z-score for the compound shown: COc1ccc(CCNC(=O)[C@@]2(c3ccc([N+](=O)[O-])cc3)CC(=O)N(C3CCCCC3)[C@@H]2c2ccc(CO)cc2)cc1
1.16

Indicate its recorded composite z-score; the compound in question is COc1ccc(C#Cc2ccc3c(c2)[C@]2(C(=O)N3)[C@H](C(=O)O)[C@H]3C(=O)O[C@H](c4ccccc4)[C@H](c4ccccc4)N3[C@@H]2c2ccc(O)cc2)cc1
0.285

###

Tested on: Lefty1
test_method_notes: Lefty1 protein binding to printed compounds – biochemical, small-molecule microarray, 635/667 nm fluorescence, primary screen (AID 1139)
condition_set: fluorescence 635/667, higher = more signal
For each entry below, report its composite z-score value.

For N[C@@H](Cc1ccccc1)C(=O)NCc1cn(Cc2ccccc2)nn1 , write its composite z-score.
0.2

Determine its reported composite z-score: COC(=O)c1c(CC[C@@H](CO)NC(=O)N[C@@H](C)Cn2cc(-c3ccccn3)nn2)oc(C(C)=O)c1C(=O)OC
0.936

Output composite z-score of [N-]=[N+]=Nc1ccccc1C[C@@]1(C(=O)NCCN2CCOCC2)N=C(c2ccc(OCCCO)cc2)O[C@@H]1c1ccccc1N=[N+]=[N-]
0.383

# return recorded composite z-score for entry CC(=O)NCCCC[C@@H]1NC(=O)[C@@H]2C[C@H](C(=O)NCCCCCN)[C@H](c3cccc(OCCO)c3)N2C1=O
1.03

Give the value of composite z-score reported for the following: Cc1ccccc1C(O)C1C=CC2C(=O)NC(=O)C2N1Nc1ccccn1 (stereo not drawn)
-0.0955

Write down composite z-score measured for item COc1ccc([Si](C)(C)[C@H]2[C@H](CC(=O)N3Cc4ccccc4C[C@H]3CO)O[C@@]3(C(=O)N(Cc4ccc(N5CCOC5=O)cc4)c4ccccc43)[C@@H]2C)cc1
1.22

Supply reported composite z-score belonging to this compound: CC(C)NC(=O)[C@@]1(c2ccc([N+](=O)[O-])cc2)CC(=O)N(C2CCCCC2)[C@@H]1c1ccc(CO)cc1
1.29

Provide only the value of recorded composite z-score for CCOC(=O)C1=C[C@@H](c2ccccc2)N(S(=O)(=O)c2ccc(C)cc2)[C@H]1c1ccc(OC)cc1
-0.0395

###

Hi there, I'd appreciate the recorded composite z-score for every entry that follows.
Test system: glycogen synthase kinase-3 (GSK3A per assay name; protocol says GSK3B)
test_method_notes: compounds binding glycogen synthase kinase-3 – biochemical, small-molecule microarray, 635 nm fluorescence, GSK3A, primary screen (AID 1103); note: the record names both GSK3A and GSK3B
condition_set: fluorescence 635 nm, higher = more signal
Respond using a number only.

In one line, give reported composite z-score of the entry Oc1ccc2cc[n+](Cc3cc4c(cc3Br)OCO4)cc2c1 .
-1.16

Please list composite z-score recorded for the compound COC(=O)C1=CC(CCCO)=CC(c2ccc(CN3CCCC3)cc2)N(Cc2cccc(OC(F)(F)F)c2)C=C1C(=O)OC (stereo not given)
0.68

Give composite z-score for the following compound: O=C(O)[C@@H]1C[C@@H]2C(=O)N3CCC[C@H]3C(=O)N2[C@@H]1c1ccc(O)cc1
0.762

Read the entry N[C@@H](Cc1ccccc1)C(=O)NCc1cn(Cc2ccccc2)nn1 and write its reported composite z-score.
0.179

Indicate its recorded composite z-score; the compound in question is [N-]=[N+]=Nc1ccccc1C[C@@]1(C(=O)NCCN2CCOCC2)N=C(c2ccc(OCCCO)cc2)O[C@@H]1c1ccccc1N=[N+]=[N-]
1.31

###

test_method_notes: probe aWnt5a binding to arrayed compounds – biochemical, biotinylated probe, 635/667 nm fluorescence, primary screen (AID 1113);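 note: score merges 667 nm fluorescence intensity with signal-to-noise per printed feature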
condition_set: small-molecule microarray, higher = more signal
# if value of composite z-score reaches -0.03, tag rule met; if it stays below, tag rule not met

Evaluate CCOC(=O)C1=C[C@@H](C(C)(C)C)N(S(=O)(=O)c2ccc(C)cc2)[C@H]1c1cccc2ccccc12 : composite z-score at minimum -0.03?
rule not met

Quick check: does C=CCN1Cc2ccccc2[C@@H]2OC(c3ccc(OCCCO)cc3)=N[C@]2(CC=C)C1=O have composite z-score greater than or equal to -0.03?
rule met

Would you say COc1ccc(C#Cc2ccc3c(c2)[C@]2(C(=O)N3)[C@H](C(=O)O)[C@H]3C(=O)O[C@H](c4ccccc4)[C@H](c4ccccc4)N3[C@@H]2c2ccc(O)cc2)cc1 shows composite z-score at minimum -0.03?
rule not met

# bool: composite z-score of COc1ccc(CCNC(=O)[C@@]2(c3ccc([N+](=O)[O-])cc3)CC(=O)N(C3CCCCC3)[C@@H]2c2ccc(CO)cc2)cc1 >= -0.03
rule not met

Please tell me: is the compound CCCCCCc1nc(Cc2cc(OC)c(OC)c(OC)c2)cc2c1[Si](C(C)C)(C(C)C)OC2 at or over -0.03 in terms of composite z-score?
rule not met

Please check the record CC(=O)NCCCC[C@@H]1NC(=O)[C@@H]2C[C@H](C(=O)NCCCCCN)[C@H](c3cccc(OCCO)c3)N2C1=O and state if its composite z-score is at or above -0.03.
rule met

Determine whether measured composite z-score meets or exceeds -0.03 for COC(=O)[C@@]1(Cc2ccccc2)[C@H]2c3cc(C(=O)N(C)C)n(Cc4ccc(C)o4)c3C[C@H]2CN1C(=O)c1ccccc1
rule met

###

Exercise: state measured z-score for each of the molecules provided.
test_method_notes: JC-1 mitochondrial signal, unstimulated HepG2 cells – cell-based, JC-1 fluorescence, 24 h, 100 nL compound, profiling panel (AID 1167); note: test concentration not given here
condition_set: HepG2 mitochondrial potential, higher = more signal
Hey, just send me the number, nothing else.

Give the reported value of z-score for this record: CCCC[C@@H](O)C1=C(COC)C[C@H]2C(=O)N(C)C(=O)[C@H]2[C@H]1CO
1.23

Specify z-score for Cc1ccc(N2C(=O)c3ccccc3[C@@H](C(=O)NCCCN(C)C)[C@@H]2c2ccc(CO)cc2)nc1 and stop.
-0.685

Give the value of z-score reported for the following: NC(=O)[C@@]1(Cc2ccccc2)COC(c2ccc(OCCCO)cc2)=N1
-0.798

Please indicate z-score recorded for CN(C)C(=O)[C@]1(Cc2ccccc2CN=[N+]=[N-])N=C(c2ccc(OCCCO)cc2)O[C@@H]1c1ccccc1
-0.117

Check the records and state z-score for CC(=O)N1CC2(CC2)CC1c1ccccc1 (stereo unspecified)
-1.15

Give recorded z-score. CC1CC/C=C\[C@H]2OC34C=CCN(c5ccc6ccccc6c5)C(=O)[C@H]3N(CCCO)C(=O)[C@@H]4C2C(=O)O1 (stereo partly specified)
-0.519

Hello, please tell me recorded z-score for this one: CN1C2C=C(CCCO)C(C3C(=O)N(C(N)=O)C(=O)C32)C1C1CC1 (stereo unspecified)
-0.486

Quick one: give measured z-score for O=C1C[C@]2(c3ccc([N+](=O)[O-])cc3)C(=O)N(C3CC3)c3cc(CO)ccc3[C@H]2N1CC12CC3CC(CC(C3)C1)C2
-0.148

For O=C(Cc1ccccc1)[C@H]1C2C=CCCC(c3ccccc3)=C2CN1Cc1ccccc1 (stereo partly specified) , write its z-score.
0.655

Return z-score (reported value) for this molecule: COc1ccc([Si](C)(C)[C@H]2[C@H](CC(=O)N3CCC[C@H]3CO)O[C@@]3(C(=O)N(Cc4ccc(N5CCOC5=O)cc4)c4ccccc43)[C@@H]2C)cc1
2.41

Provide one value: measured z-score of CC(CO)N1C(=O)[C@@H]2[C@H]3C(=O)OCC=C[C@H]3OC23C=CCN(Cn2nnc4ccccc42)C(=O)[C@@H]13 (stereo partly specified)
-1.23

Please supply the value of reported z-score for the item CCOC(=O)C1=CC[C@@H](c2ccccc2)N(S(=O)(=O)c2ccc(C)cc2)[C@H]1c1ccccc1
1.61

Identify z-score associated with the molecule Cc1ccc(S[C@]2(C(=O)O)CC(=O)N(C3CCCCC3)[C@@H]2c2ccc(CO)cc2I)cc1
-1.1

State, in one line, measured z-score of COCCOC(=O)N1C(=O)[C@@]2(c3cc(C#CC4=CCCCC4)ccc31)[C@H](C(=O)Nc1nc3ccccc3s1)[C@H]1C(=O)O[C@H](c3ccccc3)[C@H](c3ccccc3)N1[C@@H]2c1ccc(O)cc1
-3.16

Kindly indicate its recorded z-score. Item: C[N+](C)(C)CCCC[C@@H]1NC(=O)[C@@H]2C[C@H](C(=O)NCCCCCCN)[C@H](c3cccc(OCCO)c3)N2C1=O
0.746

Supply recorded z-score for CC(C)NC(=O)[C@@]1(c2ccc([N+](=O)[O-])cc2)CC(=O)N(C2CCCCC2)[C@@H]1c1ccc(CO)cc1 here.
1.46
